Data origin: patent US8143270B2

Entries and their measured melting point follow.
Where a name gives a salt, the structure may show the parent alone.

- molecule: "COCCCNc1nc2c(N)nc3ccccc3c2n1CC(C)(C)O [Example 9]"
  melting point: "209 to 210 °C"
- molecule: "CCNc1nc2c(N)nc(C)c(C)c2n1CC(C)C [Example 16]"
  melting point: "168 to 170 °C"
- molecule: "Nc1nc2ccccc2c2c1nc(N)n2CC1(O)CCC1 [Example 46]"
  melting point: "295 °C (dec.)"
- molecule: "C[C@H](c1ccccc1)n1c(N)nc2c(N)nc3ccccc3c21 [Example 44]"
  melting point: "156 to 160 °C"

// recorded melting point for CCNc1nc2c(N)nc3ccccc3c2n1CC(C)(C)O [Example 7] : 233 to 235 °C

// recorded melting point for CC(C)(O)Cn1c(N)nc2c(N)nc3c(c21)CCCC3 [Example 18] : > 270 °C

// recorded melting point for CC(C)(F)Cn1c(N)nc2c(N)nc3ccccc3c21 [Example 43] : 251 °C

// recorded melting point for CC(C)(O)Cn1c(N)nc2c(N)nc3ccccc3c21 (as salt: hydrobromid) [Example 2, hydrobromide] : > 230 °C

// recorded melting point for CC(C)(Cn1c(N)nc2c(N)nc3ccccc3c21)NS(C)(=O)=O [Example 3] : > 230 °C

// recorded melting point for Nc1nc2ccccc2c2c1nc(N)n2Cc1ccccc1 [Example 4] : 254 to 256 °C

// recorded melting point for COC(=O)Nc1nc2c(N)nc3ccccc3c2n1CC(C)(C)O [Example 181] : 255 to 258 °C (dec.)

// recorded melting point for COCCNc1nc2c(N)nc3ccccc3c2n1CC(C)(C)O [Example 8] : 176 to 178 °C

====

experimental-endpoint: melting point

- molecule: "CCNc1nc2c(N)nc3ccccc3c2n1CC(C)C"
  melting point: "188 to 190 °C"
- molecule: "CC(C)Cn1c(N)nc2c(N)nc3ccccc3c21"
  melting point: "> 250 °C"

Now consider the entry below.
// recorded melting point for C[C@@H](c1ccccc1)n1c(N)nc2c(N)nc3ccccc3c21 : 135 to 140 °C
